Reference source: ChEMBL document CHEMBL1123244

System name: Aldo-keto reductase family 1 member B1 (Rattus norvegicus) (UniProt P07943)
Measurement description: Compound was tested for inhibition of crude aldose reductase obtained from rat lens, at the concentration of 100 uM
Readout label: inhibition (%)
Numbers only, in %.

Use the examples below as a reference point.
Smi | Measurement unit | inhibition
Cc1cc(=O)n(C)c2ccccc12 | % | 42
CC(=O)Oc1cccc2ccc(O)nc12 | % | 9.5
Cc1cc(=O)[nH]c2ccccc12 | % | 24

// moving on: another record for inhibition
(Q) Suppose we examine the molecule COc1ccc2nc(O)ccc2c1 ; what inhibition value has been reported?
(A) 25.8
